Reference for the values: patent US4535075A

test system: liver damage induced by carbon tetrachloride; assay: Protective (Controlling) effect on liver damage induced by carbon tetrachloride; type: in vivo, mice (dd strain); details: 250 mg/kg p.o., CCl4 0.05 ml/kg after 6 h, 24 h; CCl4 alone >2,100
Recorded metric: p-GPT (Karmen units)
Numbers only; they are read as Karmen units.

Molecule | p-GPT / Karmen units
CCCCCCC(=O)C(C(=O)OCC)=C1SC(O)C(O)S1 (stereo not drawn) [Compound 54] | 188
CCC(COC)OC(=O)C(C(=O)OC(CC)COC)=C1SC(O)C(O)S1 (stereo not drawn) [Compound 16] | 30
CC(=O)C(C(=O)OCC(C)C)=C1SC2OC(=O)OC2S1 (stereo not drawn) [Compound 92] | 29.4
CCOC(=O)C(C(=O)OCC(C)C)=C1SC(O)C(O)S1 (stereo not drawn) [Compound 19] | 9
C#CCOC(=O)C(C(=O)OCC#C)=C1SC2OC(=S)OC2S1 (stereo not drawn) [Compound 113] | 13.3

Data point: CCCCOC(=O)C(C(=O)OCC)=C1SC(O)C(O)S1 (stereo not drawn) [Compound 18] ; p-GPT = 28

Data point: CC(=O)C(C(=O)OC(C)(C)C)=C1SC2OC(=O)OC2S1 (stereo not drawn) [Compound 94] ; p-GPT = 26.5

Data point: COCC(C)OC(=O)C(C(=O)OC(C)COC)=C1SC(O)C(O)S1 (stereo not drawn) [Compound 15] ; p-GPT = 39

Data point: CCOC(=O)C(C(=O)CC(C)C)=C1SC(O)C(O)S1 (stereo not drawn) [Compound 53] ; p-GPT = 94
